# Test system: biotinyl-Val-oxazolone
# Assay name: self-aminoacylation, catalytic enhancement (BVO) (fold over background); higher = more active; k-Seq, kA / k0A0; sequences stand for … in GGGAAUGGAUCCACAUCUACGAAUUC…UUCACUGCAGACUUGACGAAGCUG
Variants at the floor of the assay were thinned out.
Readout label: self-aminoacylation
Give the figure only, with no unit attached.

// worked examples, self-aminoacylation included
AAGUUUGUUAAUAUUCGCAAG [Fam3.1 aminoacylation ribozyme variant] : 1.43
CUACACUUCAAGCAAUCGGUG [Fam1B.1 aminoacylation ribozyme variant] : 2.61
CCACAUCAAACAAUCGGUCUG [Fam1A.1 aminoacylation ribozyme variant] : 1.07

Report self-aminoacylation for AUGACCCCGGUCAUCGAGUGA [Fam2.1 aminoacylation ribozyme variant] please.
3.3

Report self-aminoacylation for AUUACCCUGGUCAGCGAGAGA [Fam2.1 aminoacylation ribozyme variant] please.
1.51

Report self-aminoacylation for AUUUCCCUGGCCAUCGAGUGA [Fam2.1 aminoacylation ribozyme variant] please.
1.95

Report self-aminoacylation for CUACUUAAAAAAAUCGGUCUG [Fam1A.1 aminoacylation ribozyme variant] please.
0.804

###

# System: biotinyl-Met-oxazolone
# Assay name: self-aminoacylation, catalytic enhancement (BMO) (fold over background); higher = more active; k-Seq, kA / k0A0; sequences stand for … in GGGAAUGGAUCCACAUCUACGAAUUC…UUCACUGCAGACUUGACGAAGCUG
Variants at the floor of the assay were thinned out.
Consider the following sequences and their measured self-aminoacylation readings.
Give the figure only, with no unit attached.

CUCCUUCAACCAAUCGGUCUG [Fam1A.1 aminoacylation ribozyme variant] : 1.1
AUUCACCUGGGUCGUCGGGUG [Fam2.2 aminoacylation ribozyme variant] : 2.46
AUUACCCUGGUCAUCUAGUGU [Fam2.1 aminoacylation ribozyme variant] : 4.11
AAGUGUCCUAAUAGUCGCAAG [Fam3.1 aminoacylation ribozyme variant] : 0.945
CUACUUCAAACAAUAGGUCUU [Fam1A.1 aminoacylation ribozyme variant] : 0.75
CUACUUCAGACAAUCGGUCCG [Fam1A.1 aminoacylation ribozyme variant] : 1
AUUACCCUGGUCAUCGAAUGU [Fam2.1 aminoacylation ribozyme variant] : 0.925
AAGUUGGCUAAUAGCCGCAAG [Fam3.1 aminoacylation ribozyme variant] : 2.22
AAGCCUGCUAAUAGUCGCAAG [Fam3.1 aminoacylation ribozyme variant] : 1.61

Moving on to another sequence below.
Give recorded self-aminoacylation with biotinyl-Met-oxazolone for the following sequence: AUUCACCUACGUCAUAGGGUG [Fam2.2 aminoacylation ribozyme variant]
1.34

###

# System: biotinyl-Trp-oxazolone
# Assay name: self-aminoacylation, catalytic enhancement (BWO) (fold over background); higher = more active; k-Seq, kA / k0A0; sequences stand for … in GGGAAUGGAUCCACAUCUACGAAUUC…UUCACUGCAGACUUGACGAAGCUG
Fewer inactive variants are shown than the library holds.
Consider the following sequences and their measured self-aminoacylation readings.
Give the figure only, with no unit attached.

// worked examples, self-aminoacylation included
AAGGUUGCAAAUAGUCGCAAG [Fam3.1 aminoacylation ribozyme variant] : 1.66
CUACUUCAAACAAUCGGGCGG [Fam1A.1 aminoacylation ribozyme variant] : 1.79
ACGUUUGCUAAUAGUCGCAAG [Fam3.1 aminoacylation ribozyme variant] : 3.66

Report self-aminoacylation for AUACUUCAAACAAUAGGUCUG [Fam1A.1 aminoacylation ribozyme variant] please.
0.803

Report self-aminoacylation for AAGUUUGUUAAUCGUCGCAAG [Fam3.1 aminoacylation ribozyme variant] please.
1.04

Report self-aminoacylation for CUACUUAAGACAAUCGGUCUG [Fam1A.1 aminoacylation ribozyme variant] please.
0.71

Report self-aminoacylation for CCACUCUUCAAGCAAUCGGUG [Fam1B.1 aminoacylation ribozyme variant] please.
5.05

Report self-aminoacylation for CCACACUUCAAGCAAUAGGAC [Fam1B.1 aminoacylation ribozyme variant] please.
0.626

Report self-aminoacylation for ACGUUUGCUAAUAGUGGCAAG [Fam3.1 aminoacylation ribozyme variant] please.
0.59

Report self-aminoacylation for AUUCACCUAGAUCGUCGGGUG [Fam2.2 aminoacylation ribozyme variant] please.
0.967

All values here come from the supplement of paper PMC9233669.
